// each record: one item and its Ki for human Factor XIa (Homo sapiens (Human))

MOLECULE	TARGET	QUANTITY	OBSERVED VALUE
CS(=O)(=O)Nc1cccc2c1CCN(C(=O)/C=C/c1c(-n3cnnn3)ccc(Cl)c1F)C2C(=O)Nc1ccc(C(=O)O)cc1 (stereo not drawn)	human Factor XIa (Homo sapiens (Human))	Ki	< 5 nM
CN(C)CCNC(=O)c1ccc(-c2cccc3c2CCN(C(=O)/C=C/c2c(-n4cnnn4)ccc(Cl)c2F)C3C(=O)Nc2ccc(C(=O)OC(C)(C)C)cc2)cc1 (stereo not drawn)	human Factor XIa (Homo sapiens (Human))	Ki	< 5 nM

As a next step, examine the molecule that follows.
Form field, Ki with human Factor XIa (Homo sapiens (Human)), item CNC(=O)c1ccc(-c2cccc3c2CCN(C(=O)/C=C/c2c(-n4cnnn4)ccc(Cl)c2F)C3C(=O)Nc2ccc(C(=O)O)cc2)cn1 (stereo not drawn) : < 5 nM

Data origin, for the record: patent US9079929B2
